Tested on: Bacillus subtilis
Experiment notes: Antibacterial activity against Bacillus subtilis assessed as growth inhibition at 100 ug/well after 24 hrs by agar well diffusion method
Assay type: functional
Protocol conditions: read-out: DIZ
Each entry below carries its recorded zone of inhibition at 100 µg/disc.

Use these answered entries as a reference point.
Clc1ccc(-c2csc(Nc3cc(-c4ccc(Cl)cc4)n(-c4nc(-c5ccc(Cl)cc5)cs4)n3)n2)cc1 = 35 mm
Clc1ccc(-c2coc(Nc3cc(-c4ccc(Cl)cc4)n(-c4nc(-c5ccc(Cl)cc5)cs4)n3)n2)cc1 = 21 mm
Cc1ccc(-c2coc(Nc3cc(-c4ccc(C)cc4)n(-c4nc(-c5ccc(C)cc5)cs4)n3)n2)cc1 = 9 mm
Cc1ccc(-c2coc(Nc3cc(-c4ccc(C)cc4)n(C(N)=S)n3)n2)cc1 = 8 mm
NC(=S)n1nc(Nc2nc(-c3ccccc3)co2)cc1-c1ccccc1 = 11 mm

// query zone of inhibition at 100 µg/disc value for entry Cc1ccc(-c2csc(Nc3cc(-c4ccc(C)cc4)n(C(N)=S)n3)n2)cc1 14 mm

Which zone of inhibition at 100 µg/disc is reported for this compound? NC(=S)n1nc(Nc2nc(-c3ccc(Cl)cc3)c[nH]2)cc1-c1ccc(Cl)cc1 23 mm

Look up zone of inhibition at 100 µg/disc: Cc1ccc(-c2csc(Nc3cc(-c4ccc(C)cc4)n(-c4nc(-c5ccc(C)cc5)cs4)n3)n2)cc1 18 mm

Find the recorded zone of inhibition at 100 µg/disc belonging to c1ccc(-c2csc(Nc3cc(-c4ccccc4)n(-c4nc(-c5ccccc5)cs4)n3)n2)cc1 and report it. 28 mm

From: ChEMBL document CHEMBL3286292
